Numbers sourced from paper PMC8554075.

biological target: RaTG13 receptor-binding domain (Bat coronavirus RaTG13, UniProt A0ABF7PLN6)
ASSAY_READOUT: binding result

BINDER	ASSAY_VALUE
AB-3492 (antibody, V domains shown) VH: QVQLQESGPGLVKPSETLSLTCAVSGGSISSYYWNWIRQPPGKGLEWIGYIYYSGRTNYNPSLKSRVTISVDTSKNQFSLKLSSVTAADTAVYYCAREMRRGYSGYDDWDLYAFDIWGQGTMVTVSS VL: DIQLTQSPSFLSTSVGDRVTITCRASQGISSYLAWYQQKPGKAPKLLIYAASTLQSGVPSRFSGSGSGTEFTLTISSLQPEDFATYYCQQLNSYPHTFGQGTKLEIK	binds
3490 (antibody, V domains shown) VH: QVQLQESGPGLVKPSETLSLTCAVSGGSISSYYWSWIRQPPGKGLEWIGYIYYSGRTNYNPSLKSRVTISVDTSKNQFSLKLSSVTAADTAVYYCAREMRRGYSGYDDWDLYAFDIWGQGTMVTVSS VL: DIQLTQSPSFLSTSVGDRVTITCRASQGISSYLAWYQQKPGKAPKLLIYAASTLQSGVPSRFSGSGSGTEFTLTISSLQPEDFATYYCQQFNSYPHTFGQGTKLEI	binds
3606 (antibody, V domains shown) VH: QVQLQESGPGLVKPSETLSLTCAVSGGSISSYYWSWIRQPPGKGLEWIGYIYYSGRTNYNSSLKSRVTISVDTSKNQFSLKLSSVTAADTAVYYCAREMRRGYSGYDDWDLYAFDIWGQGTMVTVSS VL: DIQLTQSPSFLSTSVGDRVTITCRASQGISSYLAWYQQKPGKAPKLLIYAASTLQSGVPSRFSGSGSGTDFTLTISSLQPEDFATYYCQQLNSYPHTFGQGTKLEIK	binds
